# target: Synaptic vesicular amine transporter (Rattus norvegicus)
# testDetails: Displacement of [125I]-iodovinyl-TBZ from VMAT2 in rat striatal membrane homogenates
# Assay type: cell membranes, Striatum
Values of Ki strictly less than 30 nM map to 1.0, and values of at least 30 nM map to 0.0.

> print(dat)
                                   molecule  classassignment
1  COc1cc2c(cc1OCCCF)CCN1C[C@@H](CC(C)C)[C@H](O)C[C@H]21              1.0
2  COc1cc2c(cc1OC)C1CC(NCCF)C(CC(C)C)CN1CC2 (mixture of isomers)              1.0
3  COc1cc2c(cc1OC)C1CC(N)C(CC(C)C)CN1CC2 (configuration not stated)              0.0
4  COc1cc2c(cc1OC)C1CC(NCCF)C(CC(C)C)CN1CC2 (stereo in doubt; 4-I)              1.0
5  COc1cc2c(cc1OC)C1CC(NCCCF)C(CC(C)C)CN1CC2 (configuration not stated)              1.0
6  COc1cc2c(cc1OC)C1CC(NCCF)C(CC(C)C)CN1CC2 (single isomer, unassigned; diastereomer 2)              0.0
7  CNC1CC2c3cc(OC)c(OC)cc3CCN2CC1CC(C)C (configuration not stated)              0.0

###

# target: Synaptic vesicular amine transporter (Rattus norvegicus, UniProt Q01827)
# Sequence (Q01827 whole entry): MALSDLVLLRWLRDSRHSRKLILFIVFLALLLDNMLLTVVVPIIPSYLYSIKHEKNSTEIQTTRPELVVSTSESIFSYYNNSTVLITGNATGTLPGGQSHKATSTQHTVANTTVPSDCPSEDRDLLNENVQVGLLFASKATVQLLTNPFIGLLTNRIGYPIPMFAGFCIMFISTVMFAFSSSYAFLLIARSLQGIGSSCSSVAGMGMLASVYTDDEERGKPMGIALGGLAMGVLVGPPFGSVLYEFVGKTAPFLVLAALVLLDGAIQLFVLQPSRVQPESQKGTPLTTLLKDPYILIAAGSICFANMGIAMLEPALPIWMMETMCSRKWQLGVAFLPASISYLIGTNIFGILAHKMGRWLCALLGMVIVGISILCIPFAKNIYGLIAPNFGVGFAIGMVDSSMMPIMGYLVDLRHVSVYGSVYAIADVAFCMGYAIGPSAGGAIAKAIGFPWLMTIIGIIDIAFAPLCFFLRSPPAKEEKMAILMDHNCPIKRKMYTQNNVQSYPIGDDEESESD
# testDetails: Displacement of [3H]-DTBZ from VMAT2 in rat striatal membrane homogenates
# Assay type: cell membranes, Striatum
pKi: −log10 of the molar value.
pKi: recorded values
observable: pKi

> print(dat)
                                   compound                                    target  observable  endpointresult
1  COc1cc2c(cc1OC)C1CC(N)C(CC(C)C)CN1CC2 (configuration not stated)  Synaptic vesicular amine transporter (Rattus norvegicus, UniProt Q01827)         pKi            6.82
2  CNC1CC2c3cc(OC)c(OC)cc3CCN2CC1CC(C)C (configuration not stated)  Synaptic vesicular amine transporter (Rattus norvegicus, UniProt Q01827)         pKi            6.57
3  COc1cc2c(cc1OC)C1CC(NCCCF)C(CC(C)C)CN1CC2 (configuration not stated)  Synaptic vesicular amine transporter (Rattus norvegicus, UniProt Q01827)         pKi            8.15
4  COc1cc2c(cc1OC)C1CC(NCCF)C(CC(C)C)CN1CC2 (mixture of isomers)  Synaptic vesicular amine transporter (Rattus norvegicus, UniProt Q01827)         pKi            6.64
5  COc1cc2c(cc1OCCCF)CCN1C[C@@H](CC(C)C)[C@H](O)C[C@H]21  Synaptic vesicular amine transporter (Rattus norvegicus, UniProt Q01827)         pKi            9.44
6  COc1cc2c(cc1OC)C1CC(NCCF)C(CC(C)C)CN1CC2 (stereo in doubt; 4-I)  Synaptic vesicular amine transporter (Rattus norvegicus, UniProt Q01827)         pKi            8.06
7  COc1cc2c(cc1OC)C1CC(NCCF)C(CC(C)C)CN1CC2 (single isomer, unassigned; diastereomer 2)  Synaptic vesicular amine transporter (Rattus norvegicus, UniProt Q01827)         pKi            6.16

Data provenance is ChEMBL document CHEMBL1155310.
